Value source: patent US20220119472A1

# TARGET: T1, recombinant His6-tagged extracellular domain of human Clec4C (C-type lectin domain family 4, member C) (human, UniProt Q8WTT0 44-213)
# T1 construct: Same antigen for immunisation, panning and ELISA; also called His-Clec4C(EC); pMET7-SIgK-His-Clec4C(EC)
# T1 sequence: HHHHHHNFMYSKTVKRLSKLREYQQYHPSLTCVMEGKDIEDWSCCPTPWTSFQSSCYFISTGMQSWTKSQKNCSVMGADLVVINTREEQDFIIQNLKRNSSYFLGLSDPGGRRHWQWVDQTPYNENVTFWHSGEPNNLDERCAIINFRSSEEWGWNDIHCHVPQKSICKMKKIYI
# TEST_DESCRIPTION: ELISA, TG1 periplasmic extract on coated antigen
OUTCOME_MEASURE: ELISA coated

BINDER	ELISA coated
2CL26 (VHH, pMECS VHH-HA-His6; TG1 periplasmic extract) VHH: QVQLQESGGGWVQPGDSLRLSCAASGFTFSDYAVGWFRQAPGKEREFVARITRLGNGPYYSASVKGRFTISRDNARDMAYLKMDALTPEDTATYYCAAGRTLASTHDTKTSPQTYDYWGLGTQVTVSS	4

a: 2CL91 (VHH, pMECS VHH-HA-His6; TG1 periplasmic extract) VHH: QVQLQESGGGLVQAGDSLRLSCTASERTFSNYAMGWFRLAPGKERKFVAAISTSGGTTDYVDSVKGRFTISRDNAKNTVYLQMNSLKPEDTAVYYCAARLDFSSTDLYTTAPRYPYWGQGTQVTVSS
b: 1CL81 (VHH, pMECS VHH-HA-His6; TG1 periplasmic extract) VHH: QVQLQESGGGLVQAGNSLKLSCAASGRNLAYYVMGWFRQAPGREREPVATLTRGGDDTYCADSVKGRFTISSDNAKNTVYLQMNNLKPEDTAIYTCAARLAVLSSNTYCSGLWDYWGQGTQVTVSS
Q. // select label with min value of measured ELISA coated from [ a , b ] Write the label of whichever entry you select.
A. b
(b: 1.12, a: 4)
